Assignment: determine reported A450 for the given binders.
# EXPERIMENTAL SYSTEM: T1, EGFR-Fc (R&D Systems), ectodomain of human EGFR as a Fc fusion (human, UniProt P00533 25-645)
# T1 construct: extracellular domain; Bought from R&D Systems; also called EGFR-FL-Fc; full length EGFR Fc fusion protein; not shown: Fc of the purchased fusion
# METHOD SUMMARY: direct binding ELISA, single point; clone captured by anti-His, 50 nM receptor-Fc, anti-human Fc HRP
Give bare numbers, in A450.

867C07 (designed binder, 10Fn3-based clone expressed in E. coli as His6 tagged protein; not shown: His6 tag) VSDVPRDLEVVAATPTSLLISWHSNYVDYRYYRITYGETGGNSPVQEFTVPHISDITATISGLKPGVDYTITVYAVTVEDMVRESYPPISINYRT    2.43
867E05 (designed binder, 10Fn3-based clone expressed in E. coli as His6 tagged protein; not shown: His6 tag) VSDVPRDLEVVAATPTSLLISWNRHAMASRYYRITYGETGGNSPVQEFTVPDVPFTATISGLKPGVDYTITVYAVTMSDKAMDMRTPSIGPISINYRT    1.72
867B09 (designed binder, 10Fn3-based clone expressed in E. coli as His6 tagged protein; not shown: His6 tag) VSDVPRDLEVVAATPTSLLISWYLSHSYMRYYRITYGETGGNSPVQEFTVPVIHYTATISGLKPGVDYTITVYAVTSDKISVTVSGPISINYRT    2.77

Quick one: give measured A450 for 679A01 (designed binder, 10Fn3-based clone expressed in E. coli as His6 tagged protein; not shown: His6 tag) VSDVPRDLEVVAATPTSLLISWARYAGSDRYYRITYGETGGNSPVQEFTVPDVPFTATISGLKPGVDYTITVYAVTMGHAPTVDIHWTPSPISINYRT
1.57
